assayOverview: qHTS assay for identifying genotoxic compounds that show differential cytotoxicity against isogenic chicken DT40 cell lines with known DNA damage response pathways - Rev3 mutant cell line (AID 743014); note: nearly all actives have a fitted effect of over 55% in size
protocolConditions: chicken DT40 Rev3-/- viability, CellTiter-Glo, 40 h; series mostly up to 68.4 µM
Results filed as inconclusive are left out. Activity calls are given as the source filed them. Calls come from the whole dose curve; as a rule, active = well fitted cell-killing curve with a large enough effect in the repeat runs; inconclusive = weak or mixed curves, or effect the other way; inactive = no such curve, though single readings can be large or run the other way.
Classes used: class 1 (active), class 0 (inactive)

> print(dat)
                                    molecule  assignedcategory
 1                                 CCCCCCCCS           class 0
 2                   O=[N+]([O-])c1cccc(I)c1           class 0
 3                                 CC(C)(C)N           class 0
 4  CC(C)(Cc1c[nH]c2ccccc12)NCC(O)COc1ccccc1C#N (stereo not given)           class 1
 5  C/C(=C\C(C)CC(C)CC(C)C)C1CC(=O)OC1=O (stereo not given)           class 0
 6                O=C(O)c1c2ccccc2cc2ccccc12           class 0
 7          CCOCCn1c(N2CCCN(C)CC2)nc2ccccc21           class 0
 8    CCC(=O)O[C@@H]1C[C@H]2CC[C@]1(C)C2(C)C           class 0
 9         COc1ccc(/C=C/c2cc(OC)cc(=O)o2)cc1           class 0
10              Cc1c(Cl)cccc1Nc1ccccc1C(=O)O           class 0
11                             Nc1ccc(F)cc1F           class 0
12         O=C(OCCCCCOC(=O)c1ccccc1)c1ccccc1           class 1
13                          O=C(O)CNc1ccccc1           class 0
14        Cc1c(Nc2ncccc2C(=O)O)cccc1C(F)(F)F           class 0
15         OCC(O)c1ccccc1 (stereo not given)           class 0
16                       CCCCCCCCCCCC(=O)OCC           class 0
17  Nc1ncnc2c1ncn2[C@@H]1O[C@H](CO)[C@@H](O)[C@H]1O           class 0
18               CCOc1cc(OCC)c(C(C)=O)cc1OCC           class 1
19                              CCOC(OCC)OCC           class 0
20                      C=C[Si](OCC)(OCC)OCC           class 0
21                    O=C(Cl)c1ccc(F)c(Cl)c1           class 0
22                      CC(C)NC(=O)c1ccccc1N           class 0
23  NC(=O)c1cc[n+](CC2=C(C(=O)[O-])N3C(=O)[C@@H](NC(=O)Cc4cccs4)[C@H]3SC2)cc1           class 0
24                     CCOc1ccc(NC(C)=O)cc1N           class 0
25                                    CCCCCO           class 0
26                        CC(C)CCCCCOC(=O)CS           class 1
27                               O=C1C=CCCC1           class 0
28                       C1CCN(CN2CCCCC2)CC1           class 0
29      O=C(O)c1cc(C(=O)O)c(C(=O)O)cc1C(=O)O           class 0
30           COc1ccc(CN(CCN(C)C)c2ncccn2)cc1           class 0
